Reported inhibition values for the following compounds.
Target: UniProt P18031
Sequence (P18031 whole entry): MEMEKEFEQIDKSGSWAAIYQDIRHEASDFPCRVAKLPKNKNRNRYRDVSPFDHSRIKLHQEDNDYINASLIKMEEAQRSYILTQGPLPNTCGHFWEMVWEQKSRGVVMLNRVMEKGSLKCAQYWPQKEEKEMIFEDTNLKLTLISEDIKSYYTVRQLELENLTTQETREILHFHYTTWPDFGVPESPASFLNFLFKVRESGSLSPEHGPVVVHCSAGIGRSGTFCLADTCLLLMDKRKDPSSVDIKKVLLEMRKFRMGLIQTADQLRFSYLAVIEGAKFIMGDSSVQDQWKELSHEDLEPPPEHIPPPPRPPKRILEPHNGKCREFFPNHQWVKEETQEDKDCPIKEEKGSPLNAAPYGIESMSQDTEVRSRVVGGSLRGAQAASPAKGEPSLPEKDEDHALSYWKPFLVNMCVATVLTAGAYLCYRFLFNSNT
Assay: Inhibitory activity against human protein tyrosine phosphatase 1B (PTP1B) at a concentration of 10 uM
Give just the number in %; leave the unit off.

1. CCCCCNC(=O)[C@H](Cc1ccc(OC(C(=O)O)C(=O)O)cc1)NC(=O)[C@H](Cc1c[nH]c2ccccc12)NC(=O)OC(C)(C)C; 44
2. CCCCCNC(=O)[C@H](Cc1ccc(OCC(=O)O)c(C(=O)O)c1)NC(=O)[C@H](Cc1ccccc1)NC(=O)Cc1cccc(O)c1; 86
3. CCCCCNC(=O)[C@H](Cc1ccc(OCC(=O)O)c(C(=O)O)c1)NC(=O)[C@H](Cc1ccccc1)N1CCCC1=O; 71
4. CCCCCNC(=O)[C@H](Cc1ccc(OC(C(=O)O)C(=O)O)cc1)NC(=O)[C@@H](NC(=O)OC(C)(C)C)C(C)C; 18
5. CCCCCNC(=O)[C@H](Cc1ccc(OC(C(=O)O)C(=O)O)cc1)NC(=O)[C@H](Cc1ccc2ccccc2c1)NC(=O)OC(C)(C)C; 29

Given CCCCCNC(=O)[C@H](Cc1ccc(OCC(=O)O)c(C(=O)O)c1)NC(=O)[C@H](Cc1ccccc1)NC(=O)CCNC(=O)OC(C)(C)C , state its recorded inhibition.
75

Looking for the measured inhibition of CCCCCNC(=O)[C@H](Cc1ccc(OCC(=O)O)c(C(=O)O)c1)NC(=O)[C@H](Cc1ccccc1)NC(C)=O , can you help?
77

What does the record list as inhibition for CCCCCNC(=O)[C@H](Cc1ccc(OCC(=O)O)c(C(=O)O)c1)NC(=O)[C@H](C)NC(=O)OC(C)(C)C ?
43

Which inhibition value belongs to CCCCCNC(=O)[C@H](Cc1ccc(OC(C(=O)O)C(=O)O)cc1)NC(=O)[C@H](CC[S+](C)[O-])NC(=O)OC(C)(C)C (some centres undefined) ?
21

Reported inhibition, compound CCCCCNC(=O)[C@H](Cc1ccc(OCC(=O)O)c(C(=O)O)c1)NC(=O)[C@H](Cc1ccccc1)NC(=O)Cn1nnnc1S : ____
91

Data request, read-out inhibition, for CCCCCNC(=O)[C@H](Cc1ccc(OCC(=O)O)c(C(=O)O)c1)NC(=O)[C@H](Cc1ccccc1)NC(=O)Cc1ccc(OC)cc1
87

What value of measured inhibition is listed for CCCCCNC(=O)[C@H](Cc1ccc(OCC(=O)O)c(C(=O)O)c1)NC(=O)[C@H](Cc1ccccn1)NC(=O)OC(C)(C)C ?
50

Which inhibition is listed for CCCCCNC(=O)[C@H](Cc1ccc(OC(C(=O)O)C(=O)O)cc1)NC(=O)[C@H](Cc1ccccc1)NC(=O)NC(C)(C)C ?
40

Find the recorded inhibition belonging to CCCCCNC(=O)[C@H](Cc1ccc(OCC(=O)O)c(C(=O)O)c1)NC(=O)[C@H](Cc1ccccc1)NC(=O)Cc1ccc(C)cc1 and report it.
85

###

Molecular target: Tyrosine-protein phosphatase non-receptor type 11 (Homo sapiens) (UniProt Q06124)
Sequence (whole entry): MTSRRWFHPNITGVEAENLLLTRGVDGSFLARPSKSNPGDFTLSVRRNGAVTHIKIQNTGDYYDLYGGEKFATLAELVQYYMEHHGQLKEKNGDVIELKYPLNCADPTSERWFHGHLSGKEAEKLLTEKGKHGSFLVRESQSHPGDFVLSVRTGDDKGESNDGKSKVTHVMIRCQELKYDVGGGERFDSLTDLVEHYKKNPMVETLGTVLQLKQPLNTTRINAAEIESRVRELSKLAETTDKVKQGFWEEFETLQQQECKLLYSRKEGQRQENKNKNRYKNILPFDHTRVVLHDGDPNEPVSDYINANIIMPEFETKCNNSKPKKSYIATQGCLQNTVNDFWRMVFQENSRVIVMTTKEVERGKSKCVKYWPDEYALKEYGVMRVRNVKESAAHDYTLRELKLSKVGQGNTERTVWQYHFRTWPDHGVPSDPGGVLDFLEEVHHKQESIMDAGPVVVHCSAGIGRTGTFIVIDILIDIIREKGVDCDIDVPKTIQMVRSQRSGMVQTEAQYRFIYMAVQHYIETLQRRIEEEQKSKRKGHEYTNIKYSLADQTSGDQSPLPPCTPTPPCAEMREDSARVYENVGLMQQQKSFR
Experiment: Inhibition of recombinant human phosphatase (SHP-2) at a concentration of 100 uM
Each entry gets no if its inhibition stays under 6%, and yes if its inhibition is 6% or above.

Reference set (3 entries):
1. CCCCCNC(=O)[C@H](Cc1ccc(OC(C(=O)O)C(=O)O)cc1)NC(=O)[C@H](CC(C)C)NC(=O)OC(C)(C)C; no
2. CCCCCNC(=O)[C@H](Cc1ccc(OCC(=O)O)c(C(=O)O)c1)NC(=O)[C@H](C)NC(=O)OC(C)(C)C; no
3. CCCCCNC(=O)[C@H](Cc1ccc(OC(C(=O)O)C(=O)O)cc1)NC(=O)[C@H](CCSC)NC(=O)OC(C)(C)C; no

Quick check, inhibition >= 6%? CCCCCNC(=O)[C@H](Cc1ccc(OCC(=O)O)c(C(=O)O)c1)NC(=O)[C@H](Cc1ccccc1)NC(=O)CCOC
no

Determine whether measured inhibition meets or exceeds 6% for CCCCCNC(=O)[C@H](Cc1ccc(OCC(=O)O)c(C(=O)O)c1)NC(=O)[C@H](Cc1ccccc1)NC(=O)CCCO
yes

Check if inhibition >= 6% (inclusive). Item: CCCCCNC(=O)[C@H](Cc1ccc(OCC(=O)O)c(C(=O)O)c1)NC(=O)[C@H](Cc1ccccc1)NC(=O)Cn1nnnc1S
yes

Check this compound for inhibition at or above 6%: CCCCCNC(=O)[C@H](Cc1ccc(OCC(=O)O)c(C(=O)O)c1)NC(=O)[C@H](Cc1ccccc1)NC(=O)Cc1cccc(O)c1
yes

Record CCCCCNC(=O)[C@H](Cc1ccc(OC(C(=O)O)C(=O)O)cc1)NC(=O)[C@H](CSCc1ccccc1)NC(=O)OC(C)(C)C ; criterion: inhibition no lower than 6%. Met?
no

Tell me whether inhibition is at least 6% here: CCCCCNC(=O)[C@H](Cc1ccc(OCC(=O)O)c(C(=O)O)c1)NC(=O)[C@H](CO)NC(=O)OC(C)(C)C
no

Decide: is the reported value of inhibition for CCCCCNC(=O)[C@H](Cc1ccc(OC(C(=O)O)C(=O)O)cc1)NC(=O)[C@H](CCc1ccccc1)NC(=O)OC(C)(C)C equal to or greater than 6%?
no

Record CCCCCNC(=O)[C@H](Cc1ccc(OCC(=O)O)c(C(=O)O)c1)NC(=O)[C@H](Cc1ccccc1)NC(C)=O ; criterion: inhibition no lower than 6%. Met?
yes

Given the entry CCCCCNC(=O)[C@H](Cc1ccc(OC(C(=O)O)C(=O)O)cc1)NC(=O)[C@H](Cc1cccc2ccccc12)NC(=O)OC(C)(C)C , answer whether its inhibition meets or surpasses 6%.
yes

// inclusive: inhibition at least 6%? input: CCCCCNC(=O)[C@H](Cc1ccc(OCC(=O)O)c(C(=O)O)c1)NC(=O)[C@H](Cc1ccccc1)NC(=O)Cc1ccc(C(F)(F)F)cc1
yes

These entries and their values trace back to ChEMBL document CHEMBL1136635.
